target-desc: wild-type EGFR (A431 cells) (Homo sapiens)
Construct: A431 bears amplification of the wild-type EGFR gene; endogenous in cells
protocol-details: Cellular phosphorylation assay, pEGFR (phospho-EGFR Tyr1068 AlphaLISA) in A431
condition-set: compound incubated for 5 hours, EGF (30 ng/mL) for 15 minutes
Below: a set of entries, each annotated with reported IC50.

C=C(F)C(=O)N1CC=C(c2ccc3ncnc(Nc4ccc(Oc5ccn6ncnc6c5)c(C)c4)c3n2)CC1 [Example 31] | ≥ 1000 nM

Next up:
What measured IC50 goes with C=CC(=O)N1CCN(c2ncc3ncnc(Nc4cc(C)c(Oc5ccn6ncnc6c5)cc4F)c3n2)CC1(C)C [Example 76] ? ≥ 1000 nM

---

target-desc: Ba/F3 HER2-YVMA cells (HER2-A775_G776insYVMA) (Homo sapiens, UniProt P04626, DUP772-775, cells depend on it)
Sequence (P04626 with tags, fused parts or gaps DUP772-775): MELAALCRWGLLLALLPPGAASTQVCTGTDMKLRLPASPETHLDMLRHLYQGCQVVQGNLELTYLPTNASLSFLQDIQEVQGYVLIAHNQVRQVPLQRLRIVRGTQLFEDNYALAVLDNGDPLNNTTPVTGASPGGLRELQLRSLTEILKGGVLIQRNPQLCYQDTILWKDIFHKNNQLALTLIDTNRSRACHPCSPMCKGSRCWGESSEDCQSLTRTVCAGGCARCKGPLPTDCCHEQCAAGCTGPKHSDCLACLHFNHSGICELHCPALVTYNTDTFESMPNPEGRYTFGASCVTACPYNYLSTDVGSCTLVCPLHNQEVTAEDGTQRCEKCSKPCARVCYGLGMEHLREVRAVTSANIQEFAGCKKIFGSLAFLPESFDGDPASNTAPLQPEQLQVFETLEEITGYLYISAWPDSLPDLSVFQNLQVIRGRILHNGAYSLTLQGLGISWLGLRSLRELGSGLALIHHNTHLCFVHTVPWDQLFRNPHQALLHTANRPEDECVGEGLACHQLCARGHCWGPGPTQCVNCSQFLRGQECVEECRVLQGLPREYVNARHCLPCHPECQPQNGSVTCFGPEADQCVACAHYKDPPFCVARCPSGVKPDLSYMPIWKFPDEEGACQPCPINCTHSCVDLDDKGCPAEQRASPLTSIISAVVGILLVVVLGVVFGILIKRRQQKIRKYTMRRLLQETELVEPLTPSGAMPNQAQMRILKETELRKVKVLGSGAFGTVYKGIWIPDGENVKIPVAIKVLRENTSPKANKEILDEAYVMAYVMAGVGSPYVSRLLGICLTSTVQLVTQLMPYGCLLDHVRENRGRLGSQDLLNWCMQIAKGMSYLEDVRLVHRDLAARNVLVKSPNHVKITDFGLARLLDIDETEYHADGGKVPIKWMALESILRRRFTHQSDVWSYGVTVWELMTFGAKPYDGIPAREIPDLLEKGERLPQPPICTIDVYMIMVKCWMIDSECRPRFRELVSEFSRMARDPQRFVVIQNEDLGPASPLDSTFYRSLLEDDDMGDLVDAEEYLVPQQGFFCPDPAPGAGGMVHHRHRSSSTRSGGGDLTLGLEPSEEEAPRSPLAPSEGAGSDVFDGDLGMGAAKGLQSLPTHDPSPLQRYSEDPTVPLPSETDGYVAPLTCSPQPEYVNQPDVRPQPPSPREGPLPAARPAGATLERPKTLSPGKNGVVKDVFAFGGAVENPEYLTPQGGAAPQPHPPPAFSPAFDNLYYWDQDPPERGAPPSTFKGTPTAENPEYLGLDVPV
protocol-details: Cell proliferation assay (CellTiter-Glo), Ba/F3 HER2-YVMA
Assay type: cell-based
condition-set: read-out: Ba/F3 HER2-YVMA cell proliferation IC50
value-kind: GI50

Recorded GI50, per entry:
C=CC(=O)N1CCN(c2ccc3ncnc(Nc4ncc(Oc5ccn6ncnc6c5)c(C)c4F)c3c2F)C[C@H]1C | 100 to 500 nM
C=CC(=O)N1CCC2(C1)CN(c1ncc3ncnc(Nc4ccc(Oc5ccn6ncnc6c5)c(C)c4F)c3n1)C2 | 100 to 500 nM
C=CC(=O)N1CC=C(c2ccc3ncnc(Nc4ccc(Oc5cc(OC)n6ncnc6c5)c(C)c4)c3n2)CC1 | < 100 nM

Give its GI50 value. Item: C=CC(=O)N1C[C@@H]2CC[C@H]1CN2c1ncc2ncnc(Nc3ccc(Oc4ccn5ncnc5c4)c(C)c3F)c2n1 < 100 nM

---

target-desc: wild-type EGFR (A431 cells) (Homo sapiens, UniProt P00533)
Construct: A431 bears amplification of the wild-type EGFR gene; endogenous in cells
Sequence (P00533 25-1210): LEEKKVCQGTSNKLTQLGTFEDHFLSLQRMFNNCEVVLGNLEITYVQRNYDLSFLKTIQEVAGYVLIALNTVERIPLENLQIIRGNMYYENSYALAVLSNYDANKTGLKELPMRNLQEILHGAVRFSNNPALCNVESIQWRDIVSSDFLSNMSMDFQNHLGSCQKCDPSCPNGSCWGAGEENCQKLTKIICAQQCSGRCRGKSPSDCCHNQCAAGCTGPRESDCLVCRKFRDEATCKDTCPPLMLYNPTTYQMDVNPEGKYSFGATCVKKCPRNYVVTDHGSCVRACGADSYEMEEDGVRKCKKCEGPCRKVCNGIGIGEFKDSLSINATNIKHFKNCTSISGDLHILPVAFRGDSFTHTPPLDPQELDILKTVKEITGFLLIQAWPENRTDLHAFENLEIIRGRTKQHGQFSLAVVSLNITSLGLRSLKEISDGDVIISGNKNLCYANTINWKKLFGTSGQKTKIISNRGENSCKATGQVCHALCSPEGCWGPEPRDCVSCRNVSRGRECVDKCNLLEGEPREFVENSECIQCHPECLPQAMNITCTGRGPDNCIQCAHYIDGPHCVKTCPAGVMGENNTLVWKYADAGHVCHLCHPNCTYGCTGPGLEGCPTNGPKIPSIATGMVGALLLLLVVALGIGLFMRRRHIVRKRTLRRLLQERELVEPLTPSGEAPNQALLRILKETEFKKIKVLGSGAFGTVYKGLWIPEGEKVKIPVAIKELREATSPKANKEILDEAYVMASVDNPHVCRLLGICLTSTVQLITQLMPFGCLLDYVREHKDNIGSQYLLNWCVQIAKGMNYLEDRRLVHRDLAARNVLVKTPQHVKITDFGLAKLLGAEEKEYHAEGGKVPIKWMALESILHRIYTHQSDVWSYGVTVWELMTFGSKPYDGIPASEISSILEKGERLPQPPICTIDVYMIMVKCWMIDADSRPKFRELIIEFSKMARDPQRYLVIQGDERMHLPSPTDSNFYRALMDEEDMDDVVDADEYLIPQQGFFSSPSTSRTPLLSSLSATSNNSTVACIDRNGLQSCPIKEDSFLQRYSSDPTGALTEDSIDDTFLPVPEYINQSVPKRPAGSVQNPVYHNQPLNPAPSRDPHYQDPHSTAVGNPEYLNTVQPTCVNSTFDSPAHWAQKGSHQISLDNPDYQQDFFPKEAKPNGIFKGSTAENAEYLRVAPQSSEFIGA
protocol-details: Cellular phosphorylation assay, pEGFR (phospho-EGFR Tyr1068 AlphaLISA) in A431
condition-set: compound incubated for 5 hours, EGF (30 ng/mL) for 15 minutes
pIC50: −log10 of the molar value.
value-kind: pIC50

Solved entries (count: 4):
C=CC(=O)N1CCN(c2ncc3ncnc(Nc4ccc(Oc5cc6ncnn6cn5)c(C)c4F)c3n2)C[C@H]1C | 6.30 to 7.00
C=CC(=O)N1CCN(c2ccc3ncnc(Nc4ccc(Oc5ccn6ncnc6c5)c(C)c4)c3c2OC)CC1 | ≤ 6.00
C=CC(=O)N1CCC=C(c2ncc3ncnc(Nc4ccc(Oc5ccn6ncnc6c5)c(C)c4F)c3n2)CC1 | 6.00 to 6.30
C=CC(=O)N1CCN(c2ccc3ncnc(Nc4ccc(Oc5ccn6ncnc6c5)c(C)c4)c3c2F)CC1 | ≤ 6.00

Quick check: pIC50 of C=CC(=O)N1CCN(c2ncc3ncnc(Nc4ccc(Oc5ccn6ncnc6c5)c(C)c4F)c3c2F)C[C@H]1C ? ≤ 6.00

Given the compound C=CC(=O)N1CC=C(c2ncc3ncnc(Nc4ccc(Oc5ccn6ncnc6c5)c(C)c4F)c3n2)CCC1 , what is its reported pIC50? 6.30 to 7.00

Data request, read-out pIC50, for C=CC(=O)N1C[C@@H]2CN(c3ncc4ncnc(Nc5ccc(Oc6ccn7ncnc7c6)c(C)c5F)c4n3)C[C@@H]2C1 ≤ 6.00

I am curious: what pIC50 value has been reported for C=CC(=O)N1CCN(c2ncc3ncnc(Nc4ccc(Oc5ccc6c(c5)ncn6C)c(C)c4F)c3c2F)C[C@H]1C ? 6.00 to 6.30

Given the entry C=CC(=O)N1CC=C(c2ccc3ncnc(Nc4ccc(Oc5ccc6ccn(C)c6c5)c(C)c4)c3n2)CC1 , report its measured pIC50. 6.30 to 7.00

Value lookup for pIC50; key = Cc1c(Oc2ccn3ncnc3c2)ccc(Nc2ncnc3cnc(C4=C[C@@H](C)N(C(=O)/C=C/CN(C)C)CC4)nc23)c1F 6.30 to 7.00

Consider the compound C=CC(=O)N1CCC(c2ncc3ncnc(Nc4ccc(Oc5ccn6ncnc6c5)c(C)c4F)c3n2)=C[C@H]1C and give its measured pIC50. ≤ 6.00

Any idea what pIC50 was measured for C=CC(=O)N1CCC=C(c2ccc3ncnc(Nc4ccc(Oc5ccn6ncnc6c5)c(C)c4)c3n2)CC1 ? 6.30 to 7.00
